- MEASURED ON: human orexin type 2 receptor (hOX2R) (Homo sapiens)
- Construct: expressed in transfected cells
- Sequence (O43614 whole entry): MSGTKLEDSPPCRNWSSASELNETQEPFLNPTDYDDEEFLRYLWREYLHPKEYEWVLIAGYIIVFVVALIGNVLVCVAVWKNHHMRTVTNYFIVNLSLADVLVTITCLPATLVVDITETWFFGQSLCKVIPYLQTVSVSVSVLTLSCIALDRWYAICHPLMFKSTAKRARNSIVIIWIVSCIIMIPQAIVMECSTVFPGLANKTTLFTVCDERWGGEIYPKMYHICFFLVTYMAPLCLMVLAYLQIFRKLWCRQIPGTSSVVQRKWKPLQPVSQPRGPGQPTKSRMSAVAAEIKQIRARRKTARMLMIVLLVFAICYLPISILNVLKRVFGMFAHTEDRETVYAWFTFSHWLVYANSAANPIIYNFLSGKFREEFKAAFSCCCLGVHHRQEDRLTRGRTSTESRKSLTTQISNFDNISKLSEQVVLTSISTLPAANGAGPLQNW
- PROTOCOL DESCRIPTION: Measurement of orexin type 2 receptor agonist activity (FLIPR calcium fluorescence)
- Type: cell-based
- MEASUREMENT PARAMETERS: CHO cells expressing hOX2R, FLIPR calcium fluorescence; read-out: hOx2 pEC50 (converted)
MEASURED METRIC: EC50

# returns recorded EC50 (system: human orexin type 2 receptor (hOX2R) (Homo sapiens)) for [2H]C([2H])([2H])N(C(=O)N1CC2(CC2)[C@H](NS(C)(=O)=O)[C@@H]1Cc1cccc(-c2ccccc2)c1F)C([2H])([2H])[2H]
1 to 10 nM

# returns recorded EC50 (system: human orexin type 2 receptor (hOX2R) (Homo sapiens)) for CC(C)(F)S(=O)(=O)N[C@@H]1[C@H](Cc2cccc(-c3ccccc3)c2F)N(C(=O)[C@H]2CCO2)CC12CC2
1 to 10 nM

# returns recorded EC50 (system: human orexin type 2 receptor (hOX2R) (Homo sapiens)) for CS(=O)(=O)N[C@@H]1[C@H](Cc2cccc(-c3ccccc3)c2)N(C(=O)C2CCC2)CC12CC2 (racemic)
1 to 10 nM

# returns recorded EC50 (system: human orexin type 2 receptor (hOX2R) (Homo sapiens)) for O=C(NCC1(F)CC1)N1CC2(CC2)[C@H](NS(=O)(=O)CF)[C@@H]1Cc1cccc(-c2cc(F)cc(F)c2)c1F
1 to 10 nM

# returns recorded EC50 (system: human orexin type 2 receptor (hOX2R) (Homo sapiens)) for CS(=O)(=O)NC1C(Cc2cccc(-c3ccccc3)c2)N(C(=O)N2CC(F)C2)CC12CC2 (racemic)
10 to 100 nM

# returns recorded EC50 (system: human orexin type 2 receptor (hOX2R) (Homo sapiens)) for CC(C)(O)C(=O)N1CC2(CC2)[C@H](NS(=O)(=O)CF)[C@@H]1Cc1cc(F)cc(-c2cccc(F)c2)c1F
10 to 100 nM

# returns recorded EC50 (system: human orexin type 2 receptor (hOX2R) (Homo sapiens)) for CC(C)S(=O)(=O)N[C@@H]1[C@H](Cc2cc(F)cc(-c3ccccc3)c2F)N(C(=O)[C@H]2CCO2)CC12CC2
1 to 10 nM

# returns recorded EC50 (system: human orexin type 2 receptor (hOX2R) (Homo sapiens)) for O=C([C@H]1CCO1)N1CC2(CC2)[C@H](NS(=O)(=O)CF)[C@@H]1Cc1cc(F)cc(-c2cccc(F)c2F)c1F
1 to 10 nM

# returns recorded EC50 (system: human orexin type 2 receptor (hOX2R) (Homo sapiens)) for CC(C)(O)C(=O)N1CC2(CC2)[C@H](NS(C)(=O)=O)[C@@H]1Cc1cccc(-c2cc(F)cc(F)c2)c1F
1 to 10 nM

# returns recorded EC50 (system: human orexin type 2 receptor (hOX2R) (Homo sapiens)) for CS(=O)(=O)NC1C(Cc2cccc(-c3ccccc3)c2F)N(C(=O)N2CC(F)C2)CC12CC2 (racemic)
1 to 10 nM

# returns recorded EC50 (system: human orexin type 2 receptor (hOX2R) (Homo sapiens)) for CS(=O)(=O)N[C@@H]1[C@H](Cc2cccc(-c3ccccc3)c2)N(C(=O)C2(C#N)CCC2)CC12CC2 (racemic)
10 to 100 nM

# returns recorded EC50 (system: human orexin type 2 receptor (hOX2R) (Homo sapiens)) for CS(=O)(=O)NC1C(Cc2cccc(-c3ccccc3)c2)N(C(=O)N2CC(F)(F)C2)CC12CC2 (racemic)
100 to 1000 nM
